This section presents compounds with their documented IC50 values.
- assay-target: Aldo-keto reductase family 1 member B1 (Homo sapiens)
- experiment-summary: Inhibition of human recombinant aldose reductase
Please respond with the number in µM and leave the unit unwritten.

mol | IC50 [µM]
CC1=C(O)C(=O)C=C2C1=CC(=O)[C@@H]1[C@@]2(C)CC[C@@]2(C)[C@@H]3C[C@@H](C)C(=O)C[C@]3(C)CC[C@]12C | 57.3
C[C@@H]1C[C@@H]2[C@@](C)(CC[C@@]3(C)[C@@]2(C)CC=C2c4cc(O)c(O)c(C=O)c4C=C[C@]23C)CC1=O | 57.5
CC1=C(O)C(=O)C=C2C1=C[C@H](O)[C@@H]1[C@@]2(C)CC[C@@]2(C)[C@@H]3C[C@@H](C)C(=O)C[C@]3(C)CC[C@]12C | 57

Noted for `Cc1c(O)c(O)cc2c1C(=O)C[C@@H]1[C@@]2(C)CC[C@@]2(C)[C@@H]3C[C@@H](C)C(=O)C[C@]3(C)CC[C@]12C` : its IC50 reads 57

----------
Attribute: IC50
- experiment-summary: Cytotoxicity against human SK MEL28 ATCC HTB-72 cells
- Type: functional, cell-based
- test-context: SK-MEL-28
State just the number; it will be interpreted in µg/mL.

Reference set (3 entries):
mol | quantity-unit | observed-result
CC1=C(O)C(=O)C=C2C1=C[C@H](O)[C@@H]1[C@@]2(C)CC[C@@]2(C)[C@@H]3C[C@@H](C)C(=O)C[C@]3(C)CC[C@]12C | µg/mL | 5
CC1=C(O)C(=O)C=C2C1=CC(=O)[C@@H]1[C@@]2(C)CC[C@@]2(C)[C@@H]3C[C@@H](C)C(=O)C[C@]3(C)CC[C@]12C | µg/mL | 5
Cc1c(O)c(O)cc2c1C(=O)C[C@@H]1[C@@]2(C)CC[C@@]2(C)[C@@H]3C[C@@H](C)C(=O)C[C@]3(C)CC[C@]12C | µg/mL | 10

Here's the next entry for you.
For record `C[C@@H]1C[C@@H]2[C@@](C)(CC[C@@]3(C)[C@@]2(C)CC=C2c4cc(O)c(O)c(C=O)c4C=C[C@]23C)CC1=O` the listed IC50 is 10
